- experimental_protocol: qHTS assay to test for compound auto fluorescence at 535 nm (green) in HepG2 cell free culture (AID 720686); further: on the % scale 0 is the no-effect control and ±100 the full control effect
- test_settings: Cell-free medium, green autofluorescence 485/535 nm; series mostly up to 91.3 µM
Activity calls are given as the source filed them. The call rests on the fitted dose curve; in most records, active means well fitted curve in the direction sought with a large enough effect in the repeat runs; inconclusive means weak or mixed curves; inactive means flat fitted curve, though single readings scatter.
property: fluorescence, % of fluorescein control

1. O=C1C=CC(=O)N1c1ccccc1 :: inactive
2. O=C(c1ccccc1)c1cc(Cl)ccc1O :: inactive
3. CCCCCCCC/C=C\CCCCCCCC(=O)NCc1ccc(O)c(OC)c1 :: inactive
4. CC(=O)OC(OC(C)=O)c1ccc([N+](=O)[O-])o1 :: inactive
5. CN1[C@@H]2CC[C@@H]1CC(OC(=O)C(CO)c1ccccc1)C2 (some centres not stated) :: inactive
6. CN(Cc1cc(Br)cc(Br)c1N)C1CCCCC1 :: inactive
7. c1cc2c3c(c1)ccc1cccc(c13)C2 :: inactive

* * *

- experimental_protocol: A CellTox Green Cytotoxicity Assay to monitor cytotoxicity in HepG2 cells - 16 hour (AID 1224876); further: nearly all actives have a fitted effect of over 45% in size
- test_settings: CellTox Green fluorescence; series mostly up to 76.8 µM
Results filed as inconclusive are left out. Activity calls are given as the source filed them. Calls follow the shape of the dose curve; as a rule, active = well fitted activation curve with a large enough effect in the repeat runs; inconclusive = weak or mixed curves; inactive = flat fitted curve, though single readings scatter.
Outcome codes: class 1 for active, class 0 for inactive

1) CC(C)=CCCC(C)O (centres undefined) :: class 0
2) CCOC(OCC)C(=O)c1ccccc1 :: class 0
3) Oc1cc2ccccc2cc1O :: class 0
4) CC1(C)COCN1 :: class 0
5) C[C@H]1O[C@@H](O[C@H]2[C@@H](O)C[C@H](O[C@H]3[C@@H](O)C[C@H](O[C@H]4CC[C@@]5(C)[C@H](CC[C@@H]6[C@@H]5C[C@@H](O)[C@]5(C)[C@@H](C7=CC(=O)OC7)CC[C@]65O)C4)O[C@@H]3C)O[C@@H]2C)C[C@H](O)[C@@H]1O :: class 0
6) O=C(Nc1ccc(Cl)c(Cl)c1)c1cc(Cl)cc(Cl)c1O :: class 0
7) Cc1c(-c2ccc(O)cc2)n(Cc2ccc(OCCN3CCCCCC3)cc2)c2ccc(O)cc12 :: class 1
8) CCc1cccc(C)c1 :: class 0
9) Oc1c(Br)cc(Br)c2cccnc12 :: class 0
10) CSc1c(Cl)c(Cl)c(Cl)c(Cl)c1Cl :: class 1
11) Clc1nc2ccccc2s1 :: class 0
12) CS(C)(=O)=O :: class 0
13) CCCCCCCC/C=C/CCCOC(C)=O :: class 0
14) CCCCCCCC/C=C\CCCCCCCC(=O)NCc1ccc(O)c(OC)c1 :: class 0
15) COCC(=O)O[C@]1(CCN(C)CCCc2nc3ccccc3[nH]2)CCc2cc(F)ccc2[C@@H]1C(C)C :: class 1
16) CC1(C)C(=O)N(CO)C(=O)N1CO :: class 0
17) CCO[Si](C)(C)OCC :: class 0
18) CCCC(=O)OCC(COC(=O)CCC)OC(=O)CCC :: class 0
19) CCCCOCC :: class 0
20) COC(=O)C1=C(C)NC(C)=C(C(=O)OCCCN2CCC(c3ccccc3)(c3ccccc3)CC2)C1c1cccc([N+](=O)[O-])c1 (centres undefined) :: class 0
21) CCC(C)(C)c1cc(O)c(C(C)(C)CC)cc1O :: class 0
22) CC1CCCCC1 :: class 0
23) CCCCCCCCC(C)=O :: class 0
24) O=C1NCCN1CCN1CCC(c2cn(-c3ccc(F)cc3)c3ccc(Cl)cc23)CC1 :: class 1
25) Cc1cnccn1 :: class 0
26) c1ccc2c(c1)CCC2 :: class 0
27) c1ccc(Sc2ccccc2)cc1 :: class 0
28) CCCCCCCC(C)=O :: class 0
29) CCOC(/C=C(\C)CCC=C(C)C)OCC :: class 0
30) CC(C)(C)c1cc(/C=C2\SC(=N)NC2=O)cc(C(C)(C)C)c1O :: class 1
31) Cc1oc(-c2ccccc2)nc1CCOc1ccc(C[C@H](Nc2ccccc2C(=O)c2ccccc2)C(=O)O)cc1 :: class 0
32) CCCCCCCCCCc1ccccc1 :: class 0
33) CN1[C@@H]2CC[C@H]1CC(OC(=O)C(CO)c1ccccc1)C2 (some centres undefined) :: class 0
34) CCCCCCCCCCOCC(O)CN (centres undefined) :: class 1

* * *

- experimental_protocol: qHTS assay to identify small molecule antagonists of the androgen receptor (AR) signaling pathway using the MDA cell line - cell viability counter screen (AID 743041; further: nearly all actives have a fitted effect of over 45% in size)
- test_settings: MDA-kb2 viability, CellTiter-Fluor, 16 h, cells co-treated with R1881 androgen agonist; series mostly up to 70.3 µM
- Source text: National Center for Advancing Translational Sciences [NCATS] NIH Chemical Genomics Center [NCGC] U.S. Environmental Protection Agency [EPA] National Institutes of Environmental Health Sciences [NIEHS] National Toxicology Program [NTP] U.S. Food and Drug Administration [FDA] Androgen receptor (AR), a nuclear hormone receptor, plays a critical role in AR-dependent prostate cancer and other androgen related diseases. […]
Results filed as inconclusive are left out. Activity calls are given as the source filed them. Calls come from the whole dose curve; as a rule, active = well fitted cell-killing curve with a large enough effect in the repeat runs; inconclusive = weak or mixed curves, or effect the other way; inactive = flat fitted curve, though single readings scatter.
Outcome codes: active, inactive

1. Cn1cnc2ncnc(N)c21 :: inactive
2. CN(C)c1ccc(N=NS(=O)(=O)O)cc1 :: active
3. Oc1c(Br)cc(Br)c2cccnc12 :: inactive
4. CN1[C@@H]2CC[C@H]1CC(OC(=O)C(CO)c1ccccc1)C2 (some centres undefined) :: inactive
5. CCc1cccc(C)c1 :: inactive
6. CCCCCCCOC(=O)c1ccc(O)cc1 :: inactive
7. S=C(SSSSSSC(=S)N1CCCCC1)N1CCCCC1 :: active
8. CCCCC(CC)COC(=O)c1ccc(O)cc1 (centres undefined) :: inactive
9. O=C(O)Cc1ccc(OCCNC[C@H](O)c2ccccc2)cc1 :: inactive
10. CSc1c(Cl)c(Cl)c(Cl)c(Cl)c1Cl :: inactive
11. Cc1cccc(C)c1NC(=O)CN1CCN(CCCC(c2ccc(F)cc2)c2ccc(F)cc2)CC1 :: inactive
12. NC(=O)c1ccccc1N :: inactive
13. [O]=[Zr] :: inactive
14. Cc1c(C(=O)O)cccc1[N+](=O)[O-] :: inactive
15. CCN(CC)CCSC(=O)C(c1ccccc1)c1ccccc1 :: inactive
16. c1ccc(Sc2ccccc2)cc1 :: inactive
17. CC=O :: active
18. Clc1ccc(C(c2ccccc2Cl)C(Cl)Cl)cc1 (centres undefined) :: inactive
19. O=S(=O)(O)CCCN1CCOCC1 :: inactive
20. CCC(=O)OCCc1ccccc1 :: inactive
21. SCCCCCCCCS :: inactive
22. C=CC(=O)OCCC#N :: inactive
23. CC(NCCC(c1ccccc1)c1ccccc1)c1ccccc1 (centres undefined) :: active
24. O=C(O)CCn1c2c(c3ccccc31)C[C@H](NS(=O)(=O)c1ccc(F)cc1)CC2 :: inactive
25. CC(=O)Oc1ccc(C2(c3ccc(OC(C)=O)cc3)Oc3ccccc3NC2=O)cc1 :: inactive
26. CCCCCCCCCC(=O)N(C)C :: inactive
27. c1ccc(Nc2cccc3ccccc23)cc1 :: inactive
28. CCCCCCCC/C=C/CCCOC(C)=O :: inactive
29. C=C[C@](C)(O)CC[C@@H]1[C@@]2(C)CCCC(C)(C)[C@@H]2CC[C@@]1(C)O :: inactive
30. c1cc(OCC2CO2)cc(OCC2CO2)c1 (centres undefined) :: inactive
31. CCN(CC)CCNc1ccc(CO)c2sc3ccccc3c(=O)c12 :: active
32. Oc1ccc(-c2ccccc2)c(Cl)c1 :: inactive
33. CCCCCCC(C)Nc1ccc(Nc2ccccc2)cc1 (centres undefined) :: inactive
34. S=P(N1CC1)(N1CC1)N1CC1 :: inactive
35. C[Si](C)(C)Cl :: inactive
36. CCCCCCOc1ccc(O)cc1 :: inactive
37. O=Nc1ccc(NO)cc1 :: inactive
38. Cc1oc(-c2ccccc2)nc1CCOc1ccc(C[C@H](Nc2ccccc2C(=O)c2ccccc2)C(=O)O)cc1 :: active
39. O=C1NCN(c2ccccc2)C12CCN(CCCC(c1ccc(F)cc1)c1ccc(F)cc1)CC2 :: active
40. CCCCNc1c(C(=O)OCC)c(C)nc2c1cnn2CC :: inactive
41. CCN(CC)c1ccc(N)cc1 :: active
42. CCCSS/C(CCO)=C(\C)N(C=O)Cc1cnc(C)nc1N :: inactive
43. O=C1c2c(O)ccc(O)c2C(=O)c2c(NCCNCCO)ccc(NCCNCCO)c21 :: active
44. CN(C)c1ccc(N=Nc2ccccc2C(=O)O)cc1 :: inactive
45. COc1cc(C(=O)NS(=O)(=O)c2ccccc2C)ccc1Cc1cn(C)c2ccc(NC(=O)OC3CCCC3)cc12 :: inactive
46. Cc1occc1SSc1ccoc1C :: inactive
47. Nc1ncnc2c1ncn2[C@@H]1O[C@H](COP(=O)(O)O)[C@@H](O)[C@H]1O :: inactive
48. CCCCCCCCCCCCCCCC :: inactive
49. Clc1ccc(C(Cn2ccnc2)OCc2ccsc2Cl)c(Cl)c1 (centres undefined) :: inactive
50. O=C(NO)c1ccccc1 :: inactive
51. C=C(c1ccc(C(=O)O)cc1)c1cc2c(cc1C)C(C)(C)CCC2(C)C :: inactive
52. CCCCCCOc1cc(C)c(O)c(C)c1C :: inactive
53. CNC(=O)c1cc(Oc2ccc(NC(=O)Nc3ccc(Cl)c(C(F)(F)F)c3)cc2)ccn1 :: active
54. C1CC(COCC2CO2)CCC1COCC1CO1 (centres undefined) :: inactive

Value source: PubChem BioAssay (Tox21)
